# TEST_SYSTEM: gH/gL of HCMV strain TR (on virus) (human cytomegalovirus (strain TR))
# METHOD_SUMMARY: cell-based or functional assay
IC50(MRC5/NHDF) TR, virus neutralization: recorded values

Completed entries (count: 3):
* 14E1 (antibody, V domains shown, also called 14E1 (ms)) VH: QVQLVQSGAEVKKPGASVKVSCKASGYTFTSYSISWVRQAPGQGLEWMGWINTYNGNTNYAQRVQARVTMTTDTSTSTAYMELRSLRSDDTAVYYCARDHGFFFDYWGQGNLVTVSS VL: DIQLTQSPSFLSASVGDRVTITCWASQGISSYLAWYQQKPGKAPKLLIYAASTLQSGVPSRFSGSGSGTEFTLTISSLQPEDFATYYCQQLNSYPYTFGQGTQLEIK | > 50 µg/mL
* 9A12 (antibody, V domains shown, also called 9A12 (ms); anti-gH mAb 9A12) VH: EVQLVESGGVLVQPGGSLRLSCAASGFTFSSHEMNWVRQAPGKGLEWISYISSTGSTIYDADSVKGRFTISRDNAKNSLYLQMNSLRAEDTAVYYCARSSGWYRNYSYGMDVWGQGTTVTVSS VL: DIQMAQSPSSLSASVGDRVTITCRASQGIYNYLAWFQQKPGKAPKSLIYAASSLQTGVPSKFSGSGSGTDFTLTISNLQPEDFATYYCQQYNSFPRTFGQGTKVEIK | 6.96 µg/mL
* 15G11 (antibody, V domains shown, also called 15G11 (ms); anti-gH mAb 15G11) VH: QVQLQESGPGLVKPSQTLSLTCTVSGGSISSGYYYWNWIRQHPGKGLECIGYIYYSGTTYYNPSLKSRLFISVDTSKNQFSLKLRSVTAADTAVYYCARGGLGAFDIWGQGTMVTVSS VL: EIVLTQSPGTLSLSPGERATLSCRASQSVSSSYLAWYQQKPGQAPRLLIYGASSRAPGIPDRFSGTGSGTDFTLTISRLEPEDFAVYYCQQYGISPLTFGGGTKVEIK | 3.51 µg/mL

Moving on to another binder below.
stdin: IC50(MRC5/NHDF) TR, virus neutralization for 13G1 (antibody, V domains shown, also called 13G1 (ms); anti-gH mAb 13G1) VH: QVTLKESGPVLVKPTETLTLTCTVSGFSLYNARMGVTWIRQPPGKALEWLAHIFSNDERSYTSSLKNRLTISKDTSKSQVVLTMTNMDPVDTATYYCARIDYSNYIGNWFDPWGQGTLVTVSS VL: DIQMTQSPSSLSASVGDRVTITCRASQSISNYLNWYQQKPGKAPKLLIYAASSLQGGVPSRFSGSGSGTDFTLTISSLQPEDFTTYYCQQSYSTPFTFGGGTKVEIK ?
stdout: 3.26 µg/mL
